Tested on: 422866-222-R5-J1-PDC spheroids with HUVEC/MSC, viability;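 also: spheroids exposed to compounds for seven days before reading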
Assay: Anticancer human tumor 422866-222-R5-J1-PDC patient-derived pancreatic adenocarcinoma cell line growth inhibition [GQUAD]
Settings: second compound 1 µM; first compound 0.000999 µM; active compounds read low
Label Fulfilled when viability, T/C is strictly below 80%; at or above that, label Not fulfilled.

{"molecule": "Cc1[nH]c2ccccc2c1CCNCc1ccc(/C=C/C(=O)NO)cc1 + Cc1[nH]c2ccc(F)cc2c1-c1nc2c3cccnc3c3ncccc3c2[nH]1", "target-under-test": "422866-222-R5-J1-PDC spheroids with HUVEC/MSC, viability", "qualitative-label": "Fulfilled"}
{"molecule": "CC[C@@]1(O)C(=O)OCc2c1cc1n(c2=O)Cc2cc3c(CN(C)C)c(O)ccc3nc2-1 + CN(C)c1ccc(Nc2c3ccc(NC(=O)CCN4CCCC4)cc3nc3cc(NC(=O)CCN4CCCC4)ccc23)cc1", "target-under-test": "422866-222-R5-J1-PDC spheroids with HUVEC/MSC, viability", "qualitative-label": "Not fulfilled"}
{"molecule": "CCc1c2c(nc3ccc(O)cc13)-c1cc3c(c(=O)n1C2)COC(=O)[C@]3(O)CC + CN(C)c1ccc(Nc2c3ccc(NC(=O)CCN4CCCC4)cc3nc3cc(NC(=O)CCN4CCCC4)ccc23)cc1", "target-under-test": "422866-222-R5-J1-PDC spheroids with HUVEC/MSC, viability", "qualitative-label": "Fulfilled"}
{"molecule": "Cn1ncnc1[C@H]1c2n[nH]c(=O)c3cc(F)cc(c23)N[C@@H]1c1ccc(F)cc1 + Cc1[nH]c2ccc(F)cc2c1-c1nc2c3cccnc3c3ncccc3c2[nH]1", "target-under-test": "422866-222-R5-J1-PDC spheroids with HUVEC/MSC, viability", "qualitative-label": "Not fulfilled"}
{"molecule": "Cc1[nH]c2ccccc2c1CCNCc1ccc(/C=C/C(=O)NO)cc1 + Cc1cnc(CNC(=O)c2c(=O)c3ccc(N4CCCN(C)CC4)nc3n3c2sc2ccccc23)cn1", "target-under-test": "422866-222-R5-J1-PDC spheroids with HUVEC/MSC, viability", "qualitative-label": "Fulfilled"}
{"molecule": "CCc1c2c(nc3ccc(O)cc13)-c1cc3c(c(=O)n1C2)COC(=O)[C@]3(O)CC + Cc1cnc(CNC(=O)c2c(=O)c3ccc(N4CCCN(C)CC4)nc3n3c2sc2ccccc23)cn1", "target-under-test": "422866-222-R5-J1-PDC spheroids with HUVEC/MSC, viability", "qualitative-label": "Fulfilled"}
{"molecule": "Cc1[nH]c2ccccc2c1CCNCc1ccc(/C=C/C(=O)NO)cc1 + CN(C)c1ccc(Nc2c3ccc(NC(=O)CCN4CCCC4)cc3nc3cc(NC(=O)CCN4CCCC4)ccc23)cc1", "target-under-test": "422866-222-R5-J1-PDC spheroids with HUVEC/MSC, viability", "qualitative-label": "Fulfilled"}
{"molecule": "Cn1ncnc1[C@H]1c2n[nH]c(=O)c3cc(F)cc(c23)N[C@@H]1c1ccc(F)cc1 + Cc1cnc(CNC(=O)c2c(=O)c3ccc(N4CCCN(C)CC4)nc3n3c2sc2ccccc23)cn1", "target-under-test": "422866-222-R5-J1-PDC spheroids with HUVEC/MSC, viability", "qualitative-label": "Fulfilled"}
{"molecule": "CC[C@@]1(O)C(=O)OCc2c1cc1n(c2=O)Cc2cc3c(CN(C)C)c(O)ccc3nc2-1 + Cc1[nH]c2ccc(F)cc2c1-c1nc2c3cccnc3c3ncccc3c2[nH]1", "target-under-test": "422866-222-R5-J1-PDC spheroids with HUVEC/MSC, viability", "qualitative-label": "Not fulfilled"}
{"molecule": "CCc1c2c(nc3ccc(O)cc13)-c1cc3c(c(=O)n1C2)COC(=O)[C@]3(O)CC + Cc1[nH]c2ccc(F)cc2c1-c1nc2c3cccnc3c3ncccc3c2[nH]1", "target-under-test": "422866-222-R5-J1-PDC spheroids with HUVEC/MSC, viability", "qualitative-label": "Fulfilled"}
